outcome.measure: Kd (µM)
Only the number, expressed in µM, is required.

The observed Kd for `CCCCCCCCCCCC1=C(O)C(=O)C=C(O)C1=O` when tested with VP30_110–272 protein (Zaire ebolavirus) stands at 4.62
